Reference for the values: ChEMBL document CHEMBL1134615

The entries below come with measured pKi values attached.
biological target: Matrix metalloproteinase-14 (Homo sapiens); assay: Inhibition of matrix metalloprotease-14
Scale for pKi: -log10 of concentration given in mol/L; no unit attached.

Here are 4 compounds together with their reported answers.
- COMPOUND STRING: "C[C@@H](NS(=O)(=O)c1ccccc1)C(=O)NC1=NN=C(c2ccc(C#N)cc2)CS1"
  MEASURED PARAMETER: "pKi"
  EXPERIMENTAL VALUE: 6.62
- COMPOUND STRING: "C[C@H](NS(=O)(=O)c1ccccc1)C(=O)NC1=NN=C(c2ccc(Br)cc2)CS1"
  MEASURED PARAMETER: "pKi"
  EXPERIMENTAL VALUE: 6.47
- COMPOUND STRING: "C[C@@H](NS(=O)(=O)c1ccccc1)C(=O)NC1=NN=C(c2ccc(Br)cc2)CS1"
  MEASURED PARAMETER: "pKi"
  EXPERIMENTAL VALUE: 6.70
- COMPOUND STRING: "C[C@@H](NS(=O)(=O)c1ccccc1)C(=O)NC1=NN=C(c2ccc(Cl)cc2)CS1"
  MEASURED PARAMETER: "pKi"
  EXPERIMENTAL VALUE: 7.30

Please find the next compound below.
Ask: Please indicate recorded pKi of "C[C@H](NS(=O)(=O)c1ccccc1)C(=O)NC1=NN=C(c2ccc(C#N)cc2)CS1" measured with Matrix metalloproteinase-14 (Homo sapiens).
Result: 6.62
